Where do the numbers come from? From the supplement of paper PMC6555819.

System: PPARg homodimer (NR concentration 180 nM)
protocol-notes: PBM binding z-score (relative to random genomic background probes); higher = stronger binding; sequences stand for … in GC…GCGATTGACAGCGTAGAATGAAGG
measured-endpoint: PBM binding z-score
Field format: numeric only.

Worked examples, 3 sequences total:
residue_string=CCTACTGGGCCATTCAGAGGTTATTGATCATATG readout_value=0.658
residue_string=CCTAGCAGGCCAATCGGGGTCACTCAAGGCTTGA readout_value=3.42
residue_string=GATAAAGGGTCAGCTAGAGGCCAGAGTATGGAAA readout_value=3.27

INPUT: Form entry - test system: PPARg homodimer (NR concentration 180 nM); read-out: PBM binding z-score; sequence: CGTCCAAGGTCAATGCAAGGTCAGTGAAAGCATT
OUTPUT: 5.89

INPUT: Form entry - test system: PPARg homodimer (NR concentration 180 nM); read-out: PBM binding z-score; sequence: CTATGTAGGGTAAGGGGGTCATTCAGTTTGAAAG
OUTPUT: 4.11

INPUT: Form entry - test system: PPARg homodimer (NR concentration 180 nM); read-out: PBM binding z-score; sequence: CGAACTAGGTCACCAGGACAGAGAAGAGGTTGGA
OUTPUT: 2.46

INPUT: Form entry - test system: PPARg homodimer (NR concentration 180 nM); read-out: PBM binding z-score; sequence: CTATGTAGGTTAAGGGGGTCATTCAATTTGAAAG
OUTPUT: 5.83

INPUT: Form entry - test system: PPARg homodimer (NR concentration 180 nM); read-out: PBM binding z-score; sequence: ATCGAAAGGTCGAAAGTGAGTATACCCACCCGAA
OUTPUT: 0.0924

INPUT: Form entry - test system: PPARg homodimer (NR concentration 180 nM); read-out: PBM binding z-score; sequence: ATATGTAAGTTAGGGTCATTCAGAAAGTAGGGAA
OUTPUT: 2.2

* * *

Tested on: LXRa homodimer (NR concentration 270 nM)
protocol-notes: PBM binding z-score (relative to random genomic background probes); higher = stronger binding; sequences stand for … in GC…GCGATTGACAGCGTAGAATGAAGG
measured-endpoint: PBM binding z-score
Field format: numeric only.

Worked examples, 5 sequences total:
residue_string=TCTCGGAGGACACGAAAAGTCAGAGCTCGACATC readout_value=-0.301
residue_string=AGTAAAAGTTCACTAGGTAACGTAAGATTCAGCT readout_value=3.1
residue_string=AGACAAAGTTCAGGACGAGGTAACGTAAAGCACG readout_value=0.814
residue_string=CCTAGCAGGCGAGGGTCACTCAAGCATTTCGCTT readout_value=-0.428
residue_string=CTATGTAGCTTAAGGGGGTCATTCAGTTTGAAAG readout_value=3.06

INPUT: # lookup: PBM binding z-score of CGAAGTAGGTCACCAGGACAGTGAAGAGGTTGGA
OUTPUT: 0.0752

* * *

System: RARg:RXRa (NR concentration 270 nM, RXRa partner concentration 90 nM)
protocol-notes: PBM binding z-score (relative to random genomic background probes); higher = stronger binding; sequences stand for … in GC…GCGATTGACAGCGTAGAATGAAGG
measured-endpoint: PBM binding z-score
Field format: numeric only.

Worked examples, 8 sequences total:
residue_string=CCTACTGGGCCATTCAGAGGTCATCGATCATATG measured_endpoint="PBM binding z-score" readout_value=4.89
residue_string=CCTAGATGGTCAGGAGGTCACACACCGGATATGA measured_endpoint="PBM binding z-score" readout_value=5.06
residue_string=TCGACTAGGTTACGGGGGCATTCAGGGATGAAGA measured_endpoint="PBM binding z-score" readout_value=3.66
residue_string=TCGAGTAGGTTACGGGGGCTTTCAGGGATGAAGA measured_endpoint="PBM binding z-score" readout_value=1.96
residue_string=TAGCCTAGGTCAGATCGGGGCAGTATACGCTATA measured_endpoint="PBM binding z-score" readout_value=2.87
residue_string=CGTCCAAGGTCCATGCTAGGTCAGTGAAAGCATT measured_endpoint="PBM binding z-score" readout_value=1.41
residue_string=ATATGTAGGTTAGGCTCATTCAGAAAGTAGGGAA measured_endpoint="PBM binding z-score" readout_value=0.252
residue_string=TTACCAAGGTTAAAGGTCGTTGATGCACGCCTTG measured_endpoint="PBM binding z-score" readout_value=5.05

# input for lookup
INPUT: # lookup: PBM binding z-score of CCTTACGGGTCACTCAAGGTTATAGCATCGGAGT
OUTPUT: 4.9

* * *

System: PXR:RXRa (NR concentration 270 nM, RXRa partner concentration 90 nM)
protocol-notes: PBM binding z-score (relative to random genomic background probes); higher = stronger binding; sequences stand for … in GC…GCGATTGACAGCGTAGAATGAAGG
The following sequences are listed with their measured PBM binding z-score values.
Field format: numeric only.

Worked examples, 8 sequences total:
residue_string=ACTAGTTGGTCAGCTGGGGTCACACACAATTCGG measured_endpoint="PBM binding z-score" readout_value=5.82
residue_string=CAAGCTAGGTCAAGAGGTCAAAGTCCGCTTCCCG measured_endpoint="PBM binding z-score" readout_value=6.25
residue_string=CAATCTAGGTCACGAAAGGTCAAAGTCGAATGAC measured_endpoint="PBM binding z-score" readout_value=7.2
residue_string=ACTAGTTGGTAAGCTGAGGTCACACACAATTCGG measured_endpoint="PBM binding z-score" readout_value=4.72
residue_string=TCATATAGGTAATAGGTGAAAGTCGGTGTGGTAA measured_endpoint="PBM binding z-score" readout_value=0.866
residue_string=CCGAGCAGGTTACGAGGGGGCATTCAGTGCGAAT measured_endpoint="PBM binding z-score" readout_value=5.19
residue_string=ATATGTAGGTCATCGGGTCATTCAGTTTGCGCAT measured_endpoint="PBM binding z-score" readout_value=5.5
residue_string=CCTACTGGGCCAAAACGGTCATTGATGCCGATAA measured_endpoint="PBM binding z-score" readout_value=-0.497

# input for lookup
INPUT: # lookup: PBM binding z-score of AGATGTAGGTTAGGGTCATTCAGAAAGTAGGGAA
OUTPUT: 4.39

* * *

Test system: THRa homodimer (NR concentration 90 nM)
protocol-notes: PBM binding z-score (relative to random genomic background probes); higher = stronger binding; sequences stand for … in GC…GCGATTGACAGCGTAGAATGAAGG
If the reported PBM binding z-score equals or exceeds 1, assign criterion met. If not, assign criterion not met.

residue_string=CGAACTAGGTCAAAGGACCGTGAAAGGCGACGTA assigned_label="criterion not met"
residue_string=ACTCGGAGGACAAATGTCAGAGCTACGCCAGTGA assigned_label="criterion not met"
residue_string=CCTTACGGGTCACTCCATGTTATAGCATCGGAGT assigned_label="criterion not met"
residue_string=AGTCATAGTTCACTAGGTAACGTAAGATTCAGCT assigned_label="criterion not met"
residue_string=TCGAGTAGGTTACGGGGGCGTTCAGGGATGAAGA assigned_label="criterion met"

INPUT: Is the recorded value of PBM binding z-score equal to or greater than 1 for this sequence? CCTAGTTGGTCAAGGTAACACACGCTATAGGTAC
OUTPUT: criterion met

INPUT: Is the recorded value of PBM binding z-score equal to or greater than 1 for this sequence? GGAACGAGGGCATTCGAGTTGATAGCATGGCGAT
OUTPUT: criterion not met

INPUT: Is the recorded value of PBM binding z-score equal to or greater than 1 for this sequence? CCTAGTTGGGCAGGAGGTCACACACCGGATATGA
OUTPUT: criterion met

INPUT: Is the recorded value of PBM binding z-score equal to or greater than 1 for this sequence? ACTAGCAGGTCAAGGGTCACTCAAGATTAGTCCG
OUTPUT: criterion met

INPUT: Is the recorded value of PBM binding z-score equal to or greater than 1 for this sequence? CTATGTAGGTTAAGGGGGTCATTCTGTTTGAAAG
OUTPUT: criterion met

INPUT: Is the recorded value of PBM binding z-score equal to or greater than 1 for this sequence? CTATGTAGGTTAAGGGCGTCATTCAGTTTGAAAG
OUTPUT: criterion not met

INPUT: Is the recorded value of PBM binding z-score equal to or greater than 1 for this sequence? ATATGGAGGTTAAGGGTCATTCAGGTTGGTTCGC
OUTPUT: criterion met

INPUT: Is the recorded value of PBM binding z-score equal to or greater than 1 for this sequence? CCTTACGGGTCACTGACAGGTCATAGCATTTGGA
OUTPUT: criterion not met

INPUT: Is the recorded value of PBM binding z-score equal to or greater than 1 for this sequence? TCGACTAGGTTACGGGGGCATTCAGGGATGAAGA
OUTPUT: criterion met

INPUT: Is the recorded value of PBM binding z-score equal to or greater than 1 for this sequence? CAAACTAGGTCAAGAGGTCAAACTCCGCTTCCCG
OUTPUT: criterion met

INPUT: Is the recorded value of PBM binding z-score equal to or greater than 1 for this sequence? GCTTACGGGTCAAAGGTTAAAGCATGAATAGAAT
OUTPUT: criterion not met

INPUT: Is the recorded value of PBM binding z-score equal to or greater than 1 for this sequence? ATCTCTAGGTAAAGTTCAGCGAAAGATCGATAGA
OUTPUT: criterion not met
